Tested on: OVCAR-5 ovarian
Experiment: NCI-60 one-dose screen, 48 h
Settings: 10 µM unless noted
The panel holds about 83,000 compounds, 20% with a hit somewhere; the sample as a whole holds those more often. Calls of active or inactive are those of the source. How the source made its calls: active means growth percent below 10; inactive means the rest.
Labels: yes (active), no (inactive)

{"molecule": "O=C(Nc1ccc(Oc2ccc(NC(=O)Nc3ccc([N+](=O)[O-])cc3)cc2)cc1)Nc1ccc([N+](=O)[O-])cc1", "class assignment": "yes"}
{"molecule": "CCCc1cc(=O)n2c(C(=O)Nc3ccccc3OC)c(C(=O)Nc3ccc(F)cc3)sc2n1", "class assignment": "no"}
{"molecule": "Cc1cc(NC(=O)c2ccc(N)cc2)ccc1N=Nc1ccc2c(O)c(N=Nc3ccc(Cl)c(S(=O)(=O)O)c3)c(S(=O)(=O)O)cc2c1", "class assignment": "no"}
{"molecule": "O=C(CCc1nnc(SCc2ccccc2)s1)c1nc2ccccc2[nH]1", "class assignment": "no"}
{"molecule": "CN(C)c1ccc(/C=C\\c2ccnc3ccccc23)cc1", "class assignment": "no"}
{"molecule": "Cc1c(C(N)=O)sc2ncn(CC(=O)Nc3ccc(Cl)cc3)c(=O)c12", "class assignment": "no"}
{"molecule": "CC(C)[C@H]1CC[C@H]2[C@@H](CC[C@H]3[C@](C)(CN)CCC[C@]23C)C1", "class assignment": "no"}
{"molecule": "CC1=CSC2=NCCN12", "class assignment": "no"}
{"molecule": "COc1cc([C@@H]2c3cc4c(cc3C(O[C@@H]3O[C@@H]5CO[C@@H](c6cccs6)OC5[C@H](O)[C@H]3O)C3COC(=O)[C@@H]32)OCO4)cc(OC)c1O (some centres undefined)", "class assignment": "yes"}
